- target-system: T1, human pIgR extracellular domain (ECD) (human, UniProt P01833 19-638)
- T1 construct: also called hpIgR ECD
- T1 sequence (P01833 other isoform, or with tags, fused parts or gaps): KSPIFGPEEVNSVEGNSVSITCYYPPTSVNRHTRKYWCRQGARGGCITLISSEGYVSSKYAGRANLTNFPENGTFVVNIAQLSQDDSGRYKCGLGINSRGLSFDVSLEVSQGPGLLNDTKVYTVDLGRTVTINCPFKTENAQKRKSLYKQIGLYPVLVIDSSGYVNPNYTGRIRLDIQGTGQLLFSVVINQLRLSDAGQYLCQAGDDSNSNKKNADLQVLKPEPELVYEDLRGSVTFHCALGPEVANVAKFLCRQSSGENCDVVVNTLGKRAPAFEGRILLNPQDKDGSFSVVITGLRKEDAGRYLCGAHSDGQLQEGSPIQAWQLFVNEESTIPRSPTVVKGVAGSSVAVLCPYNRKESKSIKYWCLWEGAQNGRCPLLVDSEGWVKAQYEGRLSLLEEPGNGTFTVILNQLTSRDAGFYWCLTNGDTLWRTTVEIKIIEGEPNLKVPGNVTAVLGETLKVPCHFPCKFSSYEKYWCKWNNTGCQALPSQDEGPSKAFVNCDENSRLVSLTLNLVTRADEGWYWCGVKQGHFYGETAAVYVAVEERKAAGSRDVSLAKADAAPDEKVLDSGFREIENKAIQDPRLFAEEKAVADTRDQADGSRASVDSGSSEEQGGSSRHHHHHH
- procedure-details: BLI; summary table, repeats Table 1
experimental-readout: pKd
Scale for pKd: -log10 of concentration given in mol/L; no unit attached.

Prompt line: Recall and state the measured pKd for VHH10-linker-mono-Fc protein (Fc fusion, made in CHO cells; also called VHH10-mono-Fc; hpIgR_225) EVQVVESGGGLVQAGGSLRLSCAASGFTFTRYAMGWFRQAPGKERSFVAAISWSGSSAGYGDSVKGRFTISRDNAKNTLYLQMNSLKPEDTAVYYCAADPFNQGYWGQGTQVTVSSEPKTPKPQPQPQLQPQPNPTTESKSPKSPAPELLGGPSVFLFPPKPKDTLMISRTPEVTCVVVDVSHEDPEVKFNWYVDGVEVHNAKTKPREEQYNSTYRVVSVLTVLHQDWLNGKEYKCKVSNKALPAPIEKTISKAKGQPREPQVYTKPPSREEMTKNQVSLSCLVKGFYPSDIAVEWESNGQPENNYKTTVPVLDSDGSFRLASYLTVDKSRWQQGNVFSCSVMHEALHNHYTQKSLSLSPGK .
Response line: 6.59

Prompt line: Return reported pKd. Input binder: VHH9-linker-mono-Fc protein (Fc fusion, made in CHO cells; also called VHH9-mono-Fc; hpIgR_221) QVQLVESGGGLVQAGGSLRLSCAVSGRTFSTYRMGWFRQAPGKERSFVAAISWSGGSTTYADPVKGRFTISRDNAKNTVYLRMNSLKPEDTAVYYCNDQRGYWGQGTLVTVSSEPKTPKPQPQPQLQPQPNPTTESKSPKSPAPELLGGPSVFLFPPKPKDTLMISRTPEVTCVVVDVSHEDPEVKFNWYVDGVEVHNAKTKPREEQYNSTYRVVSVLTVLHQDWLNGKEYKCKVSNKALPAPIEKTISKAKGQPREPQVYTKPPSREEMTKNQVSLSCLVKGFYPSDIAVEWESNGQPENNYKTTVPVLDSDGSFRLASYLTVDKSRWQQGNVFSCSVMHEALHNHYTQKSLSLSPGK
Response line: 8.40

Prompt line: Return value of pKd for input VHH6-linker-mono-Fc protein (Fc fusion, made in CHO cells; also called VHH6-mono-Fc; hpIgR_181) EVQLVESGGGLVQAGGSLRLSCAVSGSSVSSDAMGWYRQAPGNQRAWVAFISGGGTTTYADSVKGRFTISRDNTKNTVYLHMNSLKPEDTAVYYCNHPLTSRWGQGTQVTVSSEPKTPKPQPQPQLQPQPNPTTESKSPKSPAPELLGGPSVFLFPPKPKDTLMISRTPEVTCVVVDVSHEDPEVKFNWYVDGVEVHNAKTKPREEQYNSTYRVVSVLTVLHQDWLNGKEYKCKVSNKALPAPIEKTISKAKGQPREPQVYTKPPSREEMTKNQVSLSCLVKGFYPSDIAVEWESNGQPENNYKTTVPVLDSDGSFRLASYLTVDKSRWQQGNVFSCSVMHEALHNHYTQKSLSLSPGK , no commentary.
Response line: 7.57

Prompt line: Note pKd for the binder shown: VHH4-linker-mono-Fc protein (Fc fusion, also called VHH4-mono-Fc; hpIgR_073) EVQVVESGGGLVQAGGSLRLSCAVSGTSVSSNAMGWYRQAPGKQREWVGFIDRIATTTIATSVKGRFAITRDNAKNTVYLQMSGLKPEDTAVYYCNHPLTARWGQGTQVTVSSEPKTPKPQPQPQLQPQPNPTTESKSPKSPAPELLGGPSVFLFPPKPKDTLMISRTPEVTCVVVDVSHEDPEVKFNWYVDGVEVHNAKTKPREEQYNSTYRVVSVLTVLHQDWLNGKEYKCKVSNKALPAPIEKTISKAKGQPREPQVYTKPPSREEMTKNQVSLSCLVKGFYPSDIAVEWESNGQPENNYKTTVPVLDSDGSFRLASYLTVDKSRWQQGNVFSCSVMHEALHNHYTQKSLSLSPGK
Response line: 7.66
